The measurements presented in this section are drawn from paper PMC4964800.

Tested on: STAT1
assayText: IFN-γ-induced STAT1 pathway activation assay
Type: cell-based
testParameters: read-out: STAT1 IC50
pIC50: −log10 of the molar value.
measuredAttribute: pIC50

CC1=Nn2c(nnc2-c2cc(-c3ccccc3)[nH]n2)SC1 [Compound 10b]
< 4.30

May I ask what pIC50 has been recorded for Clc1ccc(C2=Nn3c(nnc3-c3[nH]nc4c3CCC4)SC2Cc2ccccc2)cc1Cl (centres unmarked) [Compound 27] ?
< 4.30

Would you kindly share the measured pIC50 for COc1ccc(C2=Nn3c(nnc3-c3[nH]nc4c3CCC4)SC2)cc1 [Compound 6a] ?
4.39

Would you mind telling me what pIC50 value was observed for Clc1ccc(C2=Nn3c(nnc3-c3cc(-c4ccccc4)n[nH]3)SC2)cc1Cl [Compound 1b] ?
< 4.30

For the molecule Clc1ccc(C2=Nn3c(nnc3-c3[nH]nc4c3CCC4)SC2)cc1 [Compound 2a] , what pIC50 is on record?
< 4.30

Dear colleague, I am looking for the recorded pIC50 of the following molecule: COc1ccc(C2=Nn3c(nnc3-c3cc(-c4ccccc4)n[nH]3)SC2)cc1 [Compound 6b]
< 4.30

So what's the measured pIC50 for this one? CC1(C)Sc2nnc(-c3[nH]nc4c3CCC4)n2N=C1c1ccc(Cl)c(Cl)c1 [Compound 30]
< 4.30

Entry under review: COc1ccc(C2=Nn3c(nnc3-c3[nH]nc4c3CCC4)SC2C(C)C)cc1 (centres unmarked) [Compound 24] . Reported pIC50?
< 4.30

Give its pIC50 value. Item: c1cc(C2=Nn3c(nnc3-c3[nH]nc4c3CCC4)SC2)ccn1 [Compound 7a]
< 4.30

For Clc1ccc(C2=Nn3c(nnc3-c3cc(-c4ccccc4)n[nH]3)SC2)s1 [Compound 8b] , what is its reported pIC50?
< 4.30

// lookup pIC50 for CC1Sc2nnc(-c3cc(-c4ccccc4)n[nH]3)n2N=C1c1ccccc1 (centres unmarked) [Compound 19]
4.82

Bench note: what pIC50 did CC1Sc2nnc(-c3cc(-c4ccc(F)cc4)n[nH]3)n2N=C1c1ccccc1 (centres unmarked) [Compound 20] show?
< 4.52

State the recorded pIC50 for this entry: C1=Nn2c(nnc2-c2[nH]nc3c2CCC3)SC1 [Compound 9a]
< 4.30

Quick one: pIC50 for C1CCC(C2=Nn3c(nnc3-c3[nH]nc4c3CCC4)SC2)CC1 [Compound 11a] ?
< 4.30
